// IC50, Tau40 assay (ThT) lookup, one value per entry
target.under.test: Tau40 P301L protein (human)
assay.remarks: cell-based or functional assay
Square brackets hold non-standard residues; d marks the D form. Ends that are not written are not given here.
Could you give me the number in µM? Just the number is fine.

Worked examples, 5 binders total:
Can you share its IC50, Tau40 assay (ThT)? I mean this binder: [dW][dR][dL][dR][dI][dH][dE] [wrlrihe]
10

Consider the binder shown here: [dW][dQ][dL][dQ][dV][dR][dW] [wqlqvrw] What is its recorded IC50, Tau40 assay (ThT)?
6.57

Requested field: IC50, Tau40 assay (ThT). Item: [dR][dL][dK][dW][dR][dW] [rlkwrw]
5.62

Please report the recorded IC50, Tau40 assay (ThT) for [dI][dH][dY][dH][dR][dI][dK][dL] [ihyhrikl] .
5.12

Quick one: IC50, Tau40 assay (ThT) of [dL][dK][dI][dA][dI][dH][dY][dH] [lkiaihyh] ?
19.5

More entries:
Endpoint output: IC50, Tau40 assay (ThT) of [dW][dN][dL][dN][dV][dR][dW] [wnlnvrw] . Value?
3.33

So what does the record say about IC50, Tau40 assay (ThT) for [dF][dE][dI][dR][dL][dH][dH][dW] [feirlhhw] ?
4.2
